Origin of values: PubChem BioAssay

Target: Fibroblast growth factor 10 (Homo sapiens)
Assay: FGF10 binders on small-molecule microarrays, primary screen, biochemical, small-molecule microarray, 635 nm fluorescence (AID 1102)
Conditions: FGF10 binding, fluorescence 635 nm, higher = more signal
Measure name: composite z-score
Quick one: just the number, no unit, thanks!

Examples from the recorded data:
Cc1ccc(S[C@]2(C(=O)NCC(C)C)CC(=O)N(C(C)C)[C@@H]2c2ccc(CO)cc2I)cc1 -0.679
C=CCOC(=O)[C@H]1[C@@H]2C(=O)O[C@@H](c3ccccc3)[C@@H](c3ccccc3)N2[C@@H](c2ccc(OCCOC(=O)[C@H]3C[C@H]4C(=O)NCC(=O)N4[C@H]3c3cccc(OCCO)c3)cc2)[C@]12C(=O)Nc1ccc(I)cc12 1.37

Sample O=C1N(Cc2ccccc2)c2ccccc2C[C@@]12N=C(c1ccc(OCCCO)cc1)O[C@H]2c1ccccc1 — what was its composite z-score?
0.457

###

Parameter: composite z-score. Scope: all listed entries.
Experiment: binders of probe aHhip on microarray, primary screen, stem cell growth factor project, biochemical, small-molecule microarray, fluorescence 635/667 (AID 1087);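 note: score merges spot fluorescence at 667nm with spot signal to noise ratio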
Conditions: higher = more signal
A bare number is all that is needed in reply.

Example entries and their recorded answers appear below.
Molecule	composite z-score
CO[C@H]1O[C@H](CO)[C@@H](OC(=O)Nc2ccccc2)[C@@H]2OC(=O)[C@@H](Cc3ccccc3)C/C=C/C[C@H](Cc3ccccc3)C(=O)O[C@@H]12	0.176
O=C1OCC=C[C@H]2OC34C=CCN(Cn5nnc6ccccc65)C(=O)[C@H]3N(CCO)C(=O)[C@@H]4[C@@H]12 (some centres undefined)	-0.139
CC(C)N1CC=CC23O[C@@H]4/C=C\CCCOC(=O)C4[C@H]2C(=O)N(C(C)CO)[C@@H]3C1=O (some centres undefined)	-0.303
CC(=O)NCCCC[C@@H]1NC(=O)[C@H]2C[C@@H](C(=O)NCCCCCN)[C@@H](c3ccc(O)cc3)N2C1=O	0.141
COC(=O)C(CC#Cc1ccc2c(c1)[C@]1(C(=O)N2)[C@H](c2ccccc2OCCO)N2[C@H](c3ccccc3)[C@H](c3ccccc3)OC(=O)[C@H]2[C@@H]1C(=O)N1CCN(c2ncccn2)CC1)C(=O)OC	-0.11

What composite z-score value was documented for this molecule, OCCCc1cc[n+](Cc2cc3c(cc2Br)OCO3)cc1 ?
-0.383

###

Molecular target: NADPH oxidase 5 (Homo sapiens)
Assay: NOX5-dependent H2O2 signal modulators, primary screen, NOX inhibitor project, cell-based, HEK293-NOX5, Amplex Red fluorescence (AID 1161)
Settings: HEK293-NOX5, ionomycin, 45 min, higher = more signal
Attribute: z-score
Lab note: record just the number, no unit beside it.

Compound	Experimental value
COc1cc2c(cc1OC)CN(C(=O)[C@@H]1[C@H]3C(=O)O[C@H](c4ccccc4)[C@H](c4ccccc4)N3[C@H](c3ccc(O)cc3)[C@@]13C(=O)Nc1ccc(C#CC4=CCCCC4)cc13)CC2	-0.337
CC(C)C[C@@H]1NC(=O)[C@@H]2C[C@H](C(=O)NCCCCCNC(=O)CS)[C@H](c3ccc(O)cc3)N2C1=O	-3.05
OCCCc1cc[n+](Cc2cc3c(cc2Br)OCO3)cc1	-0.112
COc1ccc(NN2C(C(O)c3ccc(F)cc3)C=CC3C(=O)N(C4CCCCC4)C(=O)C32)cc1 (centres undefined)	-1.23
CCCCC=C[C@@H](NC(=O)C(C)(C)C)c1ccccc1	1.63

Give the reported z-score for CN(C)CCCC[C@@H]1NC(=O)[C@H]2C[C@@H](C(=O)NCCCCCCNC(=O)CS)[C@@H](c3cccc(OCCO)c3)N2C1=O (system: NADPH oxidase 5 (Homo sapiens)).
0.992

Entry to check: COCCOC(=O)N1C(=O)[C@@]2(c3cc(C#CCNC(N)=O)ccc31)[C@H](C(=O)Nc1nc3ccccc3s1)[C@H]1C(=O)O[C@H](c3ccccc3)[C@H](c3ccccc3)N1[C@@H]2c1ccc(O)cc1
0.142

Record: COC(=O)c1c2oc(c1C(=O)OC)C(=O)N[C@H](Cc1ccccc1)Cn1cc(nn1)C1(CCCCC1)NC(=O)N[C@H](CO)CC2
0.431

Follow-up entry: COCCOC(=O)N1C(=O)[C@@]2(c3cc(C#CC4(O)CCCCCC4)ccc31)[C@H](C(N)=O)[C@H]1C(=O)O[C@H](c3ccccc3)[C@H](c3ccccc3)N1[C@@H]2c1ccc(OCCO)cc1
0.923

Entry COC(=O)[C@]1(Cc2ccccc2CN=[N+]=[N-])N=C(c2ccc(OCCCO)cc2)O[C@@H]1c1ccccc1N=[N+]=[N-] please
1.44

Same question for COCCOC(=O)N1C(=O)[C@@]2(c3cc(C#CCC(C(=O)OC)C(=O)OC)ccc31)[C@H](c1ccc(O)cc1)N1[C@H](c3ccccc3)[C@H](c3ccccc3)OC(=O)[C@H]1[C@@H]2C(=O)N1CCc2cc(OC)c(OC)cc2C1 please.
1.23

For CN1C(=O)C2C=CC(C(O)c3ccc([N+](=O)[O-])cc3)N(Nc3ccccc3)C2C1=O (centres undefined) then?
-3.26

Subsequent entry: O=C1OC[C@@H](c2ccccc2)n2cc(/C=C/c3ccccc3)cc21
-0.408

CC[C@H]1C2=C3C(CC[C@H]4C(OCc5ccc(F)cc5C(F)(F)F)OC[C@](C)([C@@H]34)N(C(=O)OC(C)(C)C)C2)C(COC(C)=O)C1COC(C)=O (some centres undefined) ?
-1.43

###

Target: Carbonic anhydrase 2 (Homo sapiens) (UniProt P00918)
Test: CAII small-molecule binders, profiling panel, biochemical, small-molecule microarray, Alexa647-labelled CAII (AID 1122)
Details: CAII-A647 binding fluorescence, higher = more signal
Quick rule: composite z-score of at least 0.4 means y, below that means n.

Compound	Class assignment
C=CCNC(=O)[C@@H]1[C@H]2C(=O)O[C@H](c3ccccc3)[C@H](c3ccccc3)N2[C@H](c2ccc(OCCO)cc2)[C@@]12C(=O)Nc1ccc(C#CCNC(N)=O)cc12	n
CC(C)C[C@@H]1NC(=O)[C@@H]2C[C@H](C(=O)NCCCCCCNC(=O)CS)[C@H](c3ccc(O)cc3)N2C1=O	y
CN1C(=O)C2C=CC(C(O)COCc3ccccc3)N(Nc3ccc([N+](=O)[O-])cc3[N+](=O)[O-])C2C1=O (configuration not stated)	n
COC(=O)[C@@]1(Cc2ccc(F)cc2)[C@H]2c3cc(C(=O)N(C)C)n(Cc4cccc5ccccc45)c3C[C@H]2CN1C(=O)c1ccccc1	y
C=CCNC(=O)[C@H]1[C@@H]2C(=O)O[C@@H](c3ccccc3)[C@@H](c3ccccc3)N2[C@@H](c2ccc(OCCO)cc2)[C@]12C(=O)Nc1ccc(C#Cc3ccc(OC)cc3)cc12	n
CC(C)(C)OC(=O)N1[C@@H](C=C(Br)Br)COC1(C)C	n

Query compound follows.
Please indicate if the recorded composite z-score for CC[C@@H](O[Si](C#C[Si](C(C)C)(C(C)C)C(C)C)(C(C)C)C(C)C)c1cn([C@H](C)c2ccccc2)nn1 meets or exceeds 0.4.
n

###

Target: Concanavalin-A (Canavalia ensiformis) (UniProt P02866)
Sequence (P02866 whole entry, looked up): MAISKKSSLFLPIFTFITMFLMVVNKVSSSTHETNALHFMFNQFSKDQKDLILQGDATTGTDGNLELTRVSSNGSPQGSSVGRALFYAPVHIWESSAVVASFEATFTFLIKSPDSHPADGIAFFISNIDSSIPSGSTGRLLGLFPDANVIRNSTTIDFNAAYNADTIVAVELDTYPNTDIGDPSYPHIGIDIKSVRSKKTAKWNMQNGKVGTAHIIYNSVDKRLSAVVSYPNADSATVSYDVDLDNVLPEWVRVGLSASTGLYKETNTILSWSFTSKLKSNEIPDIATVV
Assay: ConA small-molecule binders, primary screen, artefact control for SMM control protein annotation, biochemical, small-molecule microarray, Alexa647 label, 635 nm (AID 1127);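 note: z combines 667 nm emission intensity with signal-to-noise across three replicate slides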
Conditions: ConA-A647 binding fluorescence, higher = more signal
Property: composite z-score; scope: individual compounds
Lab note: write the figure by itself, no unit.

Observed composite z-score on Concanavalin-A (Canavalia ensiformis) (UniProt P02866) for COC(=O)C(CC#Cc1ccc2c(c1)[C@]1(C(=O)N2)[C@H](C(N)=O)[C@H]2C(=O)O[C@H](c3ccccc3)[C@H](c3ccccc3)N2[C@@H]1c1ccccc1OCCO)C(=O)OC , please.
1.12

Moving on to the next compound: C=C(COC)/C(=C/C[C@@H](OC(C)=O)c1cccc(OCCO)c1)c1cnc2ccccc2c1
0.877

One more compound: COC(=O)C1(CC(C)C)C=C2C(=C(C)C(=O)C2C)CN1 (stereo not given)
-0.667

###

The reader will find reported composite z-score values listed item by item below.
Target: Concanavalin-A (Canavalia ensiformis) (UniProt P02866)
Test: ConA small-molecule binders, primary screen, artefact control for SMM control protein annotation, biochemical, small-molecule microarray, Alexa647 label, 635 nm (AID 1127);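 note: z combines 667 nm emission intensity with signal-to-noise across three replicate slides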
Settings: ConA-A647 binding fluorescence, higher = more signal

Worked cases, answers included:
Compound	composite z-score
C=CCOC(=O)[C@H]1[C@@H]2C(=O)O[C@@H](c3ccccc3)[C@@H](c3ccccc3)N2[C@@H](c2ccc(OCCOC(=O)[C@@H]3C[C@@H]4C(=O)N[C@@H](Cc5ccccc5)C(=O)N4[C@@H]3c3ccc(O)cc3)cc2)[C@]12C(=O)Nc1ccc(I)cc12	0.92
Cc1ccc(S[C@]2(C(=O)NC(C)C)CC(=O)N(Cc3ccccc3)[C@@H]2c2ccc(CO)cc2)cc1	-1.06
C=CCOC(=O)[C@@H]1[C@H]2C(=O)O[C@H](c3ccccc3)[C@H](c3ccccc3)N2[C@H](c2ccc(OCCOC(=O)[C@@H]3C[C@@H]4C(=O)N[C@@H](CC(C)C)C(=O)N4[C@@H]3c3ccc(O)cc3)cc2)[C@@]12C(=O)Nc1ccc(I)cc12	1.17
O=C1NC(=O)C2C1C=CC(C(O)c1ccc(F)cc1)N2Nc1ccc(Cl)cc1Cl (stereo not drawn)	-0.345
COc1ccc(-c2cc3c(c(CCc4ccccc4)n2)[Si](C(C)C)(C(C)C)O[C@H]3c2ccccc2)cn1	0.571
CCCCCN1CC=CC23O[C@@H]4/C=C\CCCOC(=O)C4[C@H]2C(=O)N(CCO)[C@@H]3C1=O (stereo partly drawn)	0.433
COC(=O)C[C@H]1O[C@]2(C(=O)N(C)c3ccccc32)[C@@H](C)[C@@H]1[Si](C)(C)c1ccccc1	0.593
C=CCOC(=O)[C@@H]1[C@H]2C(=O)O[C@H](c3ccccc3)[C@H](c3ccccc3)N2[C@H](c2ccc(OCCOC(=O)[C@H]3C[C@H]4C(=O)N[C@@H](CCCCN(C)C)C(=O)N4[C@H]3c3cccc(OCCO)c3)cc2)[C@@]12C(=O)Nc1ccccc12	0.682

Which composite z-score is listed for CC1CC/C=C\[C@H]2OC34C=CCN(CCN5CCOCC5)C(=O)[C@H]3N(C(CO)C(C)C)C(=O)[C@@H]4C2C(=O)O1 (stereo partly drawn) ?
0.475

CC(C)C[C@@H]1NC(=O)[C@@H]2C[C@H](C(=O)NCCCCCNC(=O)CS)[C@H](c3ccc(O)cc3)N2C1=O ?
0.374

Can you check CCCCC(=C=CC[C@@H](O)c1ccc(OCCO)cc1)CCO next?
-0.321

// next record COC(=O)[C@H](Cc1ccccc1)N1CC(C)(OC)O[C@@H](Cc2ccccc2)[C@H]1/C=C/C1CC1 (stereo partly drawn)
0.371

Okay, and COc1ccc(CCNC(=O)[C@@]2(C)c3ccccc3C(=O)N(Cc3ccc(OC(F)(F)F)cc3)[C@H]2c2ccc(CO)cc2)cc1 ?
0.781
